# credit: patent US20160185837A1

Recorded cAMP EC50, one value per entry.
- study system: rat GLP-1 receptor (rat) (UniProt P32301)
- Sequence (P32301 22-463): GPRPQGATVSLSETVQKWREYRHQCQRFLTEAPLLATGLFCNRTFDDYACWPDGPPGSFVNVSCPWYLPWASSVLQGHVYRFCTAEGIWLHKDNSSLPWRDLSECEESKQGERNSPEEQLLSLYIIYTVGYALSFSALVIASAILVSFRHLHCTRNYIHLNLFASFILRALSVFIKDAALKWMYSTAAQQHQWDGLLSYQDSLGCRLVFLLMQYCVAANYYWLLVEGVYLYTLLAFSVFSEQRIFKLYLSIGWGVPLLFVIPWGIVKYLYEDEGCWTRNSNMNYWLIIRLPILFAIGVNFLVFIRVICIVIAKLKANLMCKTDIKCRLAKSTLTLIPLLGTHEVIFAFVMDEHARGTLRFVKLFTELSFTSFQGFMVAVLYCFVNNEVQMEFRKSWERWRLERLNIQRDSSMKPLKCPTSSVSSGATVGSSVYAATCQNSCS
- method description: cell-based or functional assay
endpoint: cAMP EC50

1. IP338 (Fc fusion) YSEGTFISDYSIAMDKIHQQDFVNWLLAQKGGGGGSGGGGSGGGGSGGGGSGGGGSGGGGSGGGGSGGGGSAN    > 945 nM
2. IP398 (Fc fusion) YSEGTFISDYSIAMDKIHQQDFVNWLLAQKGKKNDWKHNITQGGGGSGGGGSGGGGSGGGGSGGGGSGGGGSACPPC    14000 nM
3. IP352 (Fc fusion) YSEGTFTSDYSKLLERQAIDEFIAMLLKGEGGGGGSGGGGSGGGGSGGGGSGGGGSGGGGSA    0.0076 nM
